- assayed_target: WRN [UniPro: Q14191 (WRN_HUMAN), N500-C946] (Homo sapiens (Human), UniProt Q14191)
- Sequence (Q14191 500-946): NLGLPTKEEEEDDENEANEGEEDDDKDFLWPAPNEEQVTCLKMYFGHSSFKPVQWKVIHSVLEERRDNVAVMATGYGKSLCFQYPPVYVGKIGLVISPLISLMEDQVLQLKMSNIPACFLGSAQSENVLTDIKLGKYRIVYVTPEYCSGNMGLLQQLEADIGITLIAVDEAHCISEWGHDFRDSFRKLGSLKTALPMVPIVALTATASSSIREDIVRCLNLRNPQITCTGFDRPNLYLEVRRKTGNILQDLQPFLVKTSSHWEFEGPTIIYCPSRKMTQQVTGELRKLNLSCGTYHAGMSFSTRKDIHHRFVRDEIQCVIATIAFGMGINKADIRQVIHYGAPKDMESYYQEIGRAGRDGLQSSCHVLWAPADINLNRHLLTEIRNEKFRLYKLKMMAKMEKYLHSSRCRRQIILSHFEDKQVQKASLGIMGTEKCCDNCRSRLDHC
- assay_comment: WRN ATPase assay (ADP-Glo)
- Format: biochemical
- assay_context: WRN enzymatic activity assay
What IC50 was measured for each of the following?

query: // IC50 lookup, key: "CCc1c(N2CCN(C(=O)c3cnc4ccsc4c3O)CC2)c(=O)n2nc(C3=CCOCC3)nc2n1CC(=O)Nc1ccc(C(F)(F)F)cc1Cl"
result: < 100 nM

query: // IC50 lookup, key: "CCc1c(N2CCN(C(=O)CNC(=O)Nc3nccs3)CC2)c(=O)n2nc(C3=CCOCC3)nc2n1CC(=O)Nc1ccc(C(F)(F)F)cc1Cl"
result: < 100 nM

query: // IC50 lookup, key: "CCc1c(N2CCN(C(=O)c3nc4ccccc4cc3O)CC2)c(=O)n2nc(C3=CCOCC3)nc2n1CC(=O)Nc1ccc(C(F)(F)F)cc1Cl"
result: < 100 nM

query: // IC50 lookup, key: "CCc1c(N2CCN(C(=O)C(=O)Nc3ncco3)CC2)c(=O)n2nc(C3=CCOCC3)nc2n1CC(=O)Nc1ccc(C(F)(F)F)cc1Cl"
result: < 100 nM

query: // IC50 lookup, key: "CCc1c(N2CCN(C(=O)CNC(=O)c3ccccc3F)CC2)c(=O)n2nc(C3=CCOCC3)cc2n1CC(=O)Nc1ccc(C(F)(F)F)cc1Cl"
result: < 100 nM

query: // IC50 lookup, key: "CCc1c(N2CCN(C(=O)C(=O)N(C)C)CC2)c(=O)n2nc(C3=CCOCC3)nc2n1CC(=O)Nc1ccc(C(F)(F)F)cc1Cl"
result: 100 to 1000 nM

---

What IC50 was measured for each of the following?
- assayed_target: WRN [UniPro: Q14191 (WRN_HUMAN), N500-C946] (Homo sapiens (Human), UniProt Q14191)
- assay_comment: WRN unwinding assay (FORKF DNA, fluorescence)
- Assay type: biochemical
- assay_context: Table 14

query: // IC50 lookup, key: CCc1c(N2CCN(C(=O)CNC(=O)c3cc(N(C)C)ccc3F)CC2)c(=O)n2nc(C3=CCOCC3)nc2n1CC(=O)Nc1ccc(C(F)(F)F)cc1Cl [Example 212]
result: 100 to 1000 nM

query: // IC50 lookup, key: CCc1c(N2CCN(C(=O)CNC(=O)c3ccccc3F)CC2)c(=O)n2nc(C3=CCOCC3)nc2n1CC(=O)Nc1cc(F)c(C(F)(F)F)cc1C [Example 144]
result: < 100 nM

query: // IC50 lookup, key: CCc1c(N2CCN(C(=O)CNC(=O)c3ccc(F)cc3)CC2)c(=O)n2nc(C3=CCOCC3)nc2n1CC(=O)Nc1ccc(C(F)(F)F)cc1Cl [Example 98]
result: < 100 nM

query: // IC50 lookup, key: CCc1c(N2CCN(C(=O)CNC(=O)c3ccns3)CC2)c(=O)n2nc(C3=CCOCC3)nc2n1CC(=O)Nc1ccc(C(F)(F)F)cc1Cl [Example 369]
result: < 100 nM

query: // IC50 lookup, key: CCc1c(N2CCN(C(=O)CNC(=O)c3ccccc3F)CC2)c(=O)n2nc(C3=CCOCC3)nc2n1CC(=O)Nc1cc(C)cs1 [Example 154]
result: < 100 nM

query: // IC50 lookup, key: CCc1c(N2CCN(C(=O)CNC(=O)c3ccccc3O)CC2)c(=O)n2nc(C3=CCOCC3)nc2n1CC(=O)Nc1ccc(C(F)(F)F)cc1Cl [Example 269]
result: < 100 nM

Source: patent US20260015358A1
